# Measured Target: hCRTH2 (Homo sapiens, UniProt Q9Y5Y4)
# Construct: expressed in transfected cells; host or cells: HEK (human embryonic kidney) cells expressing hCRTH2; membrane preparation
# Sequence (Q9Y5Y4 whole entry): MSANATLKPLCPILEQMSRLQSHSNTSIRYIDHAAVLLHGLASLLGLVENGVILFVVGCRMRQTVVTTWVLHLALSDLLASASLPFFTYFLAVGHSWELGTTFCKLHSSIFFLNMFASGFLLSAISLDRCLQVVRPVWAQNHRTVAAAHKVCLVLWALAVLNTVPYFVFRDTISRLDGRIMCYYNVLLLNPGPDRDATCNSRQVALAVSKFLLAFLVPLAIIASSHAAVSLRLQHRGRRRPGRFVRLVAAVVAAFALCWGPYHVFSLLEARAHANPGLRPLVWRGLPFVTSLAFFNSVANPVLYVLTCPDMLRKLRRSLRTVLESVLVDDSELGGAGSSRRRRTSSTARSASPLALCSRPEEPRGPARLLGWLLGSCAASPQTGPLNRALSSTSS
# Measurement Description: Radioligand binding assay ([3H]PGD2 competition, HEK-hCRTH2 membranes)
# Details: [3H]PGD2 binding, rated A-E (Table A)
Consider the following compounds; for each one, report its Ki.

Would you please look over these solved cases?
compound="O=C(O)CCCCc1nc2cc(C(=O)NCc3ccc(OC(F)(F)F)cc3)ccc2nc1-c1ccc(Cl)cc1 [16P]" measured_target="hCRTH2 (Homo sapiens, UniProt Q9Y5Y4)" assay_result="0.1 to 2 nM"
compound="O=C(O)CCCCc1nc2cc(C(=O)N3CC(c4cccc(Cl)c4)C3)ccc2nc1-c1ccccc1 [compound 253]" measured_target="hCRTH2 (Homo sapiens, UniProt Q9Y5Y4)" assay_result="0.1 to 2 nM"
compound="O=C(O)CCCCc1nc2cc(C(=O)N3CC[C@@H](c4ccccc4)C3)ccc2nc1-c1ccc(Cl)cc1 [16M]" measured_target="hCRTH2 (Homo sapiens, UniProt Q9Y5Y4)" assay_result="0.1 to 2 nM"
compound="O=C(O)CCCCc1nc2cc(C(=O)N3CCC(c4ccccc4)CC3)ccc2nc1-c1ccc(C(F)(F)F)nc1 [26K]" measured_target="hCRTH2 (Homo sapiens, UniProt Q9Y5Y4)" assay_result="2.1 to 20 nM"
compound="O=C(O)CCCOc1nc2cc(C(=O)N3CCc4ccccc4C3)ccc2nc1-c1ccccc1 [10F]" measured_target="hCRTH2 (Homo sapiens, UniProt Q9Y5Y4)" assay_result="2.1 to 20 nM"
compound="O=C(O)CCCCc1nc2cc(C(=O)N[C@@H]3CCCc4ccccc43)ccc2nc1-c1ccc(F)cc1 [compound 217]" measured_target="hCRTH2 (Homo sapiens, UniProt Q9Y5Y4)" assay_result="0.1 to 2 nM"

Would you be so kind as to report Ki for each listed record?
1. O=C(O)CCCCc1nc2cc(C(=O)NCc3ccc(Cl)cc3)ccc2nc1-c1ccc(C(F)(F)F)cc1 [compound 155]
2. O=C(O)CCCCc1nc2cc(C(=O)N3CCC(c4ccccc4)CC3)ccc2nc1-c1ccc(F)cc1 [compound 105]
3. O=C(O)CCCCc1nc2cc(C(=O)N3CCC(c4ccccc4)C3)ccc2nc1-c1ccc(F)cc1F (stereo not shown) [26H]
4. O=C(O)CCCCc1nc2cc(C(=O)N3CC=C(c4ccccc4)CC3)ccc2nc1-c1ccc(Cl)cc1 [16AJ]
5. O=C(O)CCCCc1nc2cc(C(=O)N[C@@H]3CCc4ccccc43)ccc2nc1-c1ccc(F)cc1 [compound 229]
6. O=C(O)CCCCc1nc2cc(C(=O)N3CCC4(CCc5ccccc54)CC3)ccc2nc1-c1ccccc1 [compound 121]
7. C[C@H](NC(=O)c1ccc2nc(-c3ccc(Cl)cc3)c(CCCCC(=O)O)nc2c1)c1cccc(Cl)c1 [compound 181]
8. O=C(O)CCCCc1nc2cc(NC(=O)c3ccc(OC(F)(F)F)cc3)ccc2nc1-c1ccccc1 [11D]

Outgoing:
1: 2.1 to 20 nM; 2: 2.1 to 20 nM; 3: 2.1 to 20 nM; 4: 0.1 to 2 nM; 5: 0.1 to 2 nM; 6: 2.1 to 20 nM; 7: 0.1 to 2 nM; 8: 201 to 700 nM

Would you be so kind as to report Ki for each listed record?
1. O=C(O)CCCCc1nc2cc(C(=O)N[C@H](c3ccc(F)cc3)C(F)(F)F)ccc2nc1-c1ccc(F)cc1 [compound 139]
2. CC(NC(=O)c1ccc2nc(-c3ccc(Cl)cc3)c(CCCCC(=O)O)nc2c1)c1ccccn1 (stereo in doubt) [16AA]

Outgoing:
1: 2.1 to 20 nM; 2: 0.1 to 2 nM
